Subject of test: KIX domain of human CBP (residues 586–672) (human, UniProt Q92793 586-672)
Sequence (Q92793 586-672): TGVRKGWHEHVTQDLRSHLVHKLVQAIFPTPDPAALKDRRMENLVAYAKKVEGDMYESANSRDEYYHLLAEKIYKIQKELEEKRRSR
Measurement protocol: ITC
# dH per entry
Quantity name: dH (kcal/mol)

[[record]]
binder = "c-Myb TAD N307P (domain or fragment, human, UniProt P10242 275-327, looked up) PAAAAIQRHYNDEDPEKEKRIKELELLLMSTEPELKGQQVLPTQNHTCSYPGW"
quantity_name = "dH"
numeric_result = -8.97

[[record]]
binder = "c-Myb TAD E292D (domain or fragment, human, UniProt P10242 275-327, looked up) PAAAAIQRHYNDEDPEKDKRIKELELLLMSTENELKGQQVLPTQNHTCSYPGW"
quantity_name = "dH"
numeric_result = -11.2

[[record]]
binder = "c-Myb TAD N307V (domain or fragment, human, UniProt P10242 275-327, looked up) PAAAAIQRHYNDEDPEKEKRIKELELLLMSTEVELKGQQVLPTQNHTCSYPGW"
quantity_name = "dH"
numeric_result = -8.44

[[record]]
binder = "c-Myb TAD S304G (domain or fragment, human, UniProt P10242 275-327, looked up) PAAAAIQRHYNDEDPEKEKRIKELELLLMGTENELKGQQVLPTQNHTCSYPGW"
quantity_name = "dH"
numeric_result = -13.3

[[record]]
binder = "c-Myb TAD N307A (domain or fragment, human, UniProt P10242 275-327, looked up) PAAAAIQRHYNDEDPEKEKRIKELELLLMSTEAELKGQQVLPTQNHTCSYPGW"
quantity_name = "dH"
numeric_result = -8.29

[[record]]
binder = "c-Myb TAD P289A (domain or fragment, human, UniProt P10242 275-327, looked up) PAAAAIQRHYNDEDAEKEKRIKELELLLMSTENELKGQQVLPTQNHTCSYPGW"
quantity_name = "dH"
numeric_result = -10.2

[[record]]
binder = "c-Myb TAD K293H (domain or fragment, human, UniProt P10242 275-327, looked up) PAAAAIQRHYNDEDPEKEHRIKELELLLMSTENELKGQQVLPTQNHTCSYPGW"
quantity_name = "dH"
numeric_result = -11.1

[[record]]
binder = "c-Myb TAD S304A (domain or fragment, human, UniProt P10242 275-327, looked up) PAAAAIQRHYNDEDPEKEKRIKELELLLMATENELKGQQVLPTQNHTCSYPGW"
quantity_name = "dH"
numeric_result = -6.94

[[record]]
binder = "c-Myb TAD N307G (domain or fragment, human, UniProt P10242 275-327, looked up) PAAAAIQRHYNDEDPEKEKRIKELELLLMSTEGELKGQQVLPTQNHTCSYPGW"
quantity_name = "dH"
numeric_result = -9.26

[[record]]
binder = "c-Myb TAD P289A/P316A (domain or fragment, human, UniProt P10242 275-327, looked up) PAAAAIQRHYNDEDAEKEKRIKELELLLMSTENELKGQQVLATQNHTCSYPGW"
quantity_name = "dH"
numeric_result = -9.81

[[record]]
binder = "c-Myb TAD S304P (domain or fragment, human, UniProt P10242 275-327, looked up) PAAAAIQRHYNDEDPEKEKRIKELELLLMPTENELKGQQVLPTQNHTCSYPGW"
quantity_name = "dH"
numeric_result = -7.35

[[record]]
binder = "c-Myb TAD L300P (domain or fragment, human, UniProt P10242 275-327, looked up) PAAAAIQRHYNDEDPEKEKRIKELEPLLMSTENELKGQQVLPTQNHTCSYPGW"
quantity_name = "dH"
numeric_result = -1.34

[[record]]
binder = "c-Myb TAD L300G (domain or fragment, human, UniProt P10242 275-327, looked up) PAAAAIQRHYNDEDPEKEKRIKELEGLLMSTENELKGQQVLPTQNHTCSYPGW"
quantity_name = "dH"
numeric_result = -11.3

[[record]]
binder = "c-Myb TAD S304V (domain or fragment, human, UniProt P10242 275-327, looked up) PAAAAIQRHYNDEDPEKEKRIKELELLLMVTENELKGQQVLPTQNHTCSYPGW"
quantity_name = "dH"
numeric_result = -8.39

[[record]]
binder = "c-Myb TAD L300V (domain or fragment, human, UniProt P10242 275-327, looked up) PAAAAIQRHYNDEDPEKEKRIKELEVLLMSTENELKGQQVLPTQNHTCSYPGW"
quantity_name = "dH"
numeric_result = -11.4

[[record]]
binder = "human WT c-Myb TAD (residues 275–327) (domain or fragment, UniProt P10242 275-327, looked up) PAAAAIQRHYNDEDPEKEKRIKELELLLMSTENELKGQQVLPTQNHTCSYPGW"
quantity_name = "dH"
numeric_result = -10.5

[[record]]
binder = "c-Myb TAD L300A (domain or fragment, human, UniProt P10242 275-327, looked up) PAAAAIQRHYNDEDPEKEKRIKELEALLMSTENELKGQQVLPTQNHTCSYPGW"
quantity_name = "dH"
numeric_result = -9.26

[[record]]
binder = "c-Myb TAD K296H (domain or fragment, human, UniProt P10242 275-327, looked up) PAAAAIQRHYNDEDPEKEKRIHELELLLMSTENELKGQQVLPTQNHTCSYPGW"
quantity_name = "dH"
numeric_result = -13.8

[[record]]
binder = "c-Myb TAD G311A (domain or fragment, human, UniProt P10242 275-327, looked up) PAAAAIQRHYNDEDPEKEKRIKELELLLMSTENELKAQQVLPTQNHTCSYPGW"
quantity_name = "dH"
numeric_result = -10.1

